Experimental Protocol: NCI Yeast Anticancer Drug Screen. Data for the bub3 strain (AID 167)
Experimental Context: S. cerevisiae bub3 mutant strain, at 50.0 µM
Description: Growth inhibition of yeast strains with defined genetic alterations is measured as a screen for potential anti-cancer activity. Selected strains with alterations in DNA damage repair or cell cycle control were exposed to compounds and growth inhibition was measured relative to vehicle treated controls. The strain used in this assay is bub3
This is part of a sample that, as a whole, favours compounds with a hit. Of some 79,000 tested, about 15% had one in any assay. Active and inactive are the calls of the source. Cut-off read from the data, not from the text of the source: active = growth inhibition above about 70%; inactive = the rest.
Use one of these outcomes when replying: TRUE (active), FALSE (inactive)

Ask: GET /call?item= `O=C1CCS(=O)(=O)c2ccccc21` returns the recorded outcome of this test.
Result: FALSE

Ask: GET /call?item= CCCCC(Cc1ccccc1)(C(=O)O)c1ccccc1 (stereo not given) returns the recorded outcome of this test.
Result: TRUE

Ask: GET /call?item= `C=CS(=O)(=O)c1ccc2ccccc2c1` returns the recorded outcome of this test.
Result: TRUE

Ask: GET /call?item= `O=C(O)c1c(-c2ccccc2)cc(-c2ccccc2)cc1-c1ccccc1` returns the recorded outcome of this test.
Result: TRUE

Ask: GET /call?item= `CCCNC(=O)c1cc2ccccc2cc1C(=O)OC` returns the recorded outcome of this test.
Result: TRUE

Ask: GET /call?item= `Nc1ccccc1N=Nc1c(S(=O)(=O)O)cc2cc(S(=O)(=O)O)cc(O)c2c1O` returns the recorded outcome of this test.
Result: FALSE

Ask: GET /call?item= `CC(C)N=Cc1cc(I)cc(I)c1O.CC(C)N=Cc1cc(I)cc(I)c1O.[Co]` returns the recorded outcome of this test.
Result: TRUE

Ask: GET /call?item= `Cc1ccccc1SCc1nc2ccccc2c(C)[n+]1[O-]` returns the recorded outcome of this test.
Result: FALSE

Ask: GET /call?item= `Oc1cccc2cc(Br)cnc12` returns the recorded outcome of this test.
Result: TRUE

Ask: GET /call?item= `O=[N+]([O-])c1ccc2nc(CCl)[nH]c2c1` returns the recorded outcome of this test.
Result: TRUE

Ask: GET /call?item= `ClCc1c(-c2ccccc2)oc(-c2ccccc2)c1CCl` returns the recorded outcome of this test.
Result: FALSE

Ask: GET /call?item= COc1ccc(C(c2cc3c(cc2O)OCO3)N2CCCC2)c(OC)c1 (stereo not given) returns the recorded outcome of this test.
Result: TRUE

Ask: GET /call?item= `O=c1c(O)c(-c2ccc(Cl)cc2)oc2cc(O)ccc12` returns the recorded outcome of this test.
Result: FALSE

Ask: GET /call?item= `CC(C)(C)NC(=S)N/N=C/c1cc(Cl)cc(Cl)c1O` returns the recorded outcome of this test.
Result: TRUE

Ask: GET /call?item= `O=C1c2ccc(O)c(O)c2C(=O)c2c(O)ccc(O)c21` returns the recorded outcome of this test.
Result: TRUE

Ask: GET /call?item= O=C(CCN1CCCCC1)N1CCc2c([nH]c3ccccc23)C1c1cccnc1 (stereo not given) returns the recorded outcome of this test.
Result: FALSE

Ask: GET /call?item= CC(Nc1cc(Cl)cc(Cl)c1)c1ccncc1 (stereo not given) returns the recorded outcome of this test.
Result: FALSE

Ask: GET /call?item= `CC(=O)Oc1c(Br)cc(Br)cc1Br` returns the recorded outcome of this test.
Result: FALSE

Ask: GET /call?item= `CN=C(N)N/N=C(\C)c1ccc2c(c1)Cc1cc(Cl)ccc1-2` returns the recorded outcome of this test.
Result: TRUE

Ask: GET /call?item= COc1ccc2c(c1)CCC1C2CCC2(C)C(=O)C(SC3=NC=NC4=NC=NC43)CC12 (stereo not given) returns the recorded outcome of this test.
Result: TRUE

Ask: GET /call?item= COc1ccc2c(c1)CC1c3c(ccc(OC)c3O)CC2N1C (stereo not given) returns the recorded outcome of this test.
Result: TRUE

Ask: GET /call?item= `N=Nc1c(OC(=O)Nc2cccc(Cl)c2)[nH]c2ccccc12` returns the recorded outcome of this test.
Result: TRUE

Ask: GET /call?item= `COc1cccc2c1S(=O)(=O)C(c1ccccc1)=CC2=O` returns the recorded outcome of this test.
Result: TRUE

Ask: GET /call?item= `C(/C=C/CC=Nc1ccccc1)=Nc1ccccc1` returns the recorded outcome of this test.
Result: FALSE

Ask: GET /call?item= C/C=C(/CCC1NCCC2c3ccccc3NC12)[Si](C)(C)C (stereo not given) returns the recorded outcome of this test.
Result: FALSE
